Across several studies, compounds have been characterized by their IC50 on SYK kinase (Homo sapiens); a selection follows.
MEASUREMENT_NAME: IC50

>>> print(df.to_string())
                                   compound  measured_result
0  COc1c(NC(=O)Nc2ccc(Oc3ccnc(NCc4ccccn4)c3)c3ccccc23)cc(C(C)(C)C)cc1[S+](C)[O-] (stereo not shown)        > 1640 nM
1           Fc1cccc(F)c1Nc1nccc(-c2nccs2)n1        > 2000 nM
2     COc1cccc(-c2cc3nccc(-c4ccccc4)c3o2)c1   300 to 3000 nM
3  Cc1c2sc(-c3nc(N[C@@H]4CCCC[C@@H]4N)c(F)c4c3C(=O)NC4)cc2nn1C         0.631 nM

====

Here we gather IC50 data for SYK kinase (Homo sapiens, UniProt P43405) reported by several publications.
MEASUREMENT_NAME: IC50

>>> df
                                    compound  measurement_name    measured_result
 0  N[C@H]1CCCC[C@H]1Nc1nc(-c2cc3cccnc3s2)c2c(c1F)CNC2=O              IC50           0.158 nM
 1  CC1(C)C(=O)Nc2cc(Nc3nc4c(-c5ccc(N(C(F)(F)F)C(F)(F)F)cc5)nccn4n3)ccc21              IC50   3000 to 50000 nM
 2  COc1cc(Nc2nccc(Oc3ccc(NC(=O)Nc4cc(C(C)(C)C)cc(OCP(C)(C)=O)c4OC)c4ccccc34)n2)cc(OC)c1              IC50             188 nM
 3  CS(=O)(=O)c1ccc2nc(Nc3cnn(C4(C#N)CCCCC4)c3)c3[nH]ncc3c2c1              IC50       10 to 100 nM
 4  COCC(O)Cn1cc(-c2nccn3nc(Nc4ccc(N5CCOCC5)cc4)nc23)cn1 (centres unmarked)              IC50     300 to 3000 nM
 5  COCC1CCCN1c1nccn2nc(Nc3ccc4c(c3)NC(=O)C4(C)C)nc12 (centres unmarked)              IC50     300 to 3000 nM
 6  CC(C)n1cc(Nc2nc3cc(S(C)(=O)=O)ccc3c3cn[nH]c23)cn1              IC50       10 to 100 nM
 7   OCCn1cc(Nc2nc(-c3ccco3)nc3cn[nH]c23)cn1              IC50            < 10 nM
 8  NC(=O)c1cnc(Nc2ccc3c(c2)OC[C@H]2CN(S(=O)(=O)c4ccccc4)CCN32)nc1NC1CC1              IC50            < 10 nM
 9  COc1cc2nccc(Oc3ccc(NC(=O)c4cc(S(C)(=O)=O)n(-c5ccc(F)cc5)n4)cc3)c2cc1OC              IC50   1000 to 10000 nM
10  COc1cc(Nc2cc(Oc3ccc(NC(=O)Nc4cc(C(C)(C)C)cc(C(N)=O)c4OC)c4ccccc34)ccn2)cc(C(=O)NCCN2CCOCC2)c1              IC50             169 nM
11  COc1cc(-c2cc3nccc(-c4ccc(C)c5ncccc45)c3o2)cc(OC)c1OC              IC50     300 to 3000 nM
12  NC(=O)c1nc(-c2ccc3nc[nH]c3c2)nc2c1[nH]c(=O)n2-c1ccccc1F              IC50  10100 to 20000 nM
13  COc1cc2c3cc1Nc1ncc(F)c(n1)Nc1ccc4c(c1)NC(=O)C(C)(O4)C(=O)NCCN(C)CC(=O)N3CC2 (centres unmarked)              IC50   3000 to 50000 nM
14  Cc1ccc(-n2nc(C(C)(C)C)cc2NC(=O)Nc2ccc(Oc3ccnc(Nc4ccc5c(cnn5CCN5CCOCC5)c4)n3)c3ccccc23)cc1              IC50              29 nM
15  COc1cc(Nc2nc(C3CC3)nc3cn[nH]c23)ccc1N1CCOCC1              IC50            < 10 nM
16  COc1cccc(OC)c1-c1ccnc2cc(-c3cc(C(N)=O)ccc3C(C)C)oc12              IC50   3000 to 50000 nM
17  CC1(C)OC(=O)Nc2cc(Nc3nc4c(-c5cccc6[nH]ncc56)nccn4n3)ccc21              IC50           < 100 nM
18  CN(C)c1ccc(-c2cc3nccnc3c(OC[C@@H]3CN(S(=O)(=O)C4CCCCC4)CCO3)n2)cc1              IC50             474 nM
19  Cc1cccc(Nc2nc(NC3CC4CCC3C4)c3nc[nH]c3n2)c1 (racemic)              IC50         < 10000 nM
20  Cc1cccc(Nc2nc3c(NC4CCCCC4N)nccn3n2)c1 (centres unmarked)              IC50   3000 to 50000 nM
21  N[C@H]1CCCC[C@H]1Nc1nc(-c2cc3ccncc3s2)c2c(c1F)CNC2=O              IC50           0.158 nM
22  CN(CC#N)CCS(=O)(=O)N1CCO[C@H](COc2nc(-c3ccc(N(C)C)cc3)cc3nccnc23)C1              IC50              38 nM
23  C#CCCCNc1nc(Nc2ccc3c(c2)NC[C@H](O)CO3)ncc1C(N)=O              IC50       10 to 100 nM
24  CC1(C)C(=O)NCCN1c1ncc(-c2cccc(Nc3nccc(N4CCOCC4)n3)c2)o1              IC50     100 to 1000 nM
25  COc1ccc(Nc2nc(-c3c(F)cccc3Cl)nc3cn[nH]c23)cc1OC              IC50     100 to 1000 nM
26  CC1(C)C(=O)Nc2cc(Nc3nc4c(N5CCc6[nH]cnc6C5)nccn4n3)ccc21              IC50           < 100 nM
27  COc1cc(-c2cc3nccc(-c4ccccc4O)c3o2)cc(OC)c1OC              IC50           < 300 nM
28  N[C@H]1COCC[C@H]1Nc1nc(/C=C/c2ccc(F)cc2)c2c(c1F)CNC2=O              IC50            5.01 nM
29  N[C@H]1COCC[C@H]1Nc1nc(-c2cc3ccncc3s2)c2c(c1F)CNC2=O              IC50             0.2 nM
30  CO[C@@H](C)c1ccc(-c2nc([C@H]3C[C@@H](O)CN3C(C)=O)n3c2cnc2[nH]ccc23)cc1              IC50            < 10 nM
31  Cc1c2sc(-c3nc(N[C@@H]4CCOC[C@@H]4N)c(F)c4c3C(=O)NC4)cc2nn1C              IC50            1.26 nM

====

Across several publications, the following IC50 results were reported for SYK kinase (Homo sapiens, UniProt P43405).
MEASUREMENT_NAME: IC50

In [3]: df
Out[3]:
                                    compound                               system_name   measured_result
 0  CC1(C)C(=O)Nc2cc(Nc3nc4c(N5C[C@@H](O)C[C@H]5c5ccccc5)nccn4n3)ccc21  SYK kinase (Homo sapiens, UniProt P43405)  3000 to 50000 nM
 1  Cc1ccc(-n2nc(C(C)(C)C)cc2NC(=O)Nc2ccc(Oc3ccnc(Nc4ccc5c(c4)NC(=O)C5)n3)c3ccccc23)cc1  SYK kinase (Homo sapiens, UniProt P43405)             18 nM
 2  Cn1c(=O)c(Nc2ccc(N3CCOCC3)cc2)nc2ccc(-c3csc(N)n3)cc21  SYK kinase (Homo sapiens, UniProt P43405)             46 nM
 3  CCN1C(=O)COc2ccc(Nc3nc(-c4ccoc4)nc4cn[nH]c34)cc21  SYK kinase (Homo sapiens, UniProt P43405)    100 to 1000 nM
 4  CN(C)c1ccc(-c2cc3nccnc3c(OC3CCOCC3)n2)cc1  SYK kinase (Homo sapiens, UniProt P43405)            919 nM
 5  COc1c(NC(=O)Nc2ccc(Oc3ccnc(Nc4cnccn4)n3)c3ccccc23)cc(C(C)(C)C)cc1P(C)(C)=O  SYK kinase (Homo sapiens, UniProt P43405)         > 1640 nM
 6  CC(=O)N1CCO[C@H](COc2nc(-c3ccc(C(C)N(C)C)cc3)cc3nccnc23)C1 (stereo partly shown)  SYK kinase (Homo sapiens, UniProt P43405)            741 nM
 7  CC(C)Cn1cc(Nc2nc(-c3cccc(NS(C)(=O)=O)c3)nc3cn[nH]c23)cn1  SYK kinase (Homo sapiens, UniProt P43405)    100 to 1000 nM
 8  CC(C)(C#N)n1cc(Nc2nc(-c3ccoc3)nc3cn[nH]c23)cn1  SYK kinase (Homo sapiens, UniProt P43405)    100 to 1000 nM
 9  COc1cccc(C(=O)c2c[nH]c3ncc(-c4cccc(NC(C)=O)c4)cc23)c1F  SYK kinase (Homo sapiens, UniProt P43405)        ≤ 10000 nM
10  c1nn(C2CCNC2)cc1Nc1nc(-c2ccc3cn[nH]c3c2)nc2cn[nH]c12 (stereo not shown)  SYK kinase (Homo sapiens, UniProt P43405)           < 10 nM
11  Cc1ccsc1-c1nc(Nc2ccc(N3CCOCC3)cc2)c2[nH]ncc2n1  SYK kinase (Homo sapiens, UniProt P43405)      10 to 100 nM
12  COc1cc(Nc2cc(Oc3ccc(NC(=O)Nc4cc(C(C)(C)C)cc(CC(N)=O)c4OC)c4ccccc34)ccn2)cc(S(C)(=O)=O)c1  SYK kinase (Homo sapiens, UniProt P43405)         > 1430 nM
13  COCC(O)CNC(=O)c1ccc(OC)c(-c2cc3nccc(-c4c(OC)cccc4OC)c3o2)c1 (stereo not shown)  SYK kinase (Homo sapiens, UniProt P43405)    300 to 3000 nM
14  CC(=O)N1C[C@H](O)C[C@@H]1c1nc(-c2ccc(N3CCOCC3)cc2)c2cnc3[nH]ccc3n12  SYK kinase (Homo sapiens, UniProt P43405)           < 10 nM
15  Oc1cccc(-c2nccn3nc(Nc4ccc(N5CCOCC5)cc4)nc23)c1  SYK kinase (Homo sapiens, UniProt P43405)          < 300 nM
